Assayed Target: human OX2R (Homo sapiens, UniProt O43614)
Sequence (O43614 whole entry): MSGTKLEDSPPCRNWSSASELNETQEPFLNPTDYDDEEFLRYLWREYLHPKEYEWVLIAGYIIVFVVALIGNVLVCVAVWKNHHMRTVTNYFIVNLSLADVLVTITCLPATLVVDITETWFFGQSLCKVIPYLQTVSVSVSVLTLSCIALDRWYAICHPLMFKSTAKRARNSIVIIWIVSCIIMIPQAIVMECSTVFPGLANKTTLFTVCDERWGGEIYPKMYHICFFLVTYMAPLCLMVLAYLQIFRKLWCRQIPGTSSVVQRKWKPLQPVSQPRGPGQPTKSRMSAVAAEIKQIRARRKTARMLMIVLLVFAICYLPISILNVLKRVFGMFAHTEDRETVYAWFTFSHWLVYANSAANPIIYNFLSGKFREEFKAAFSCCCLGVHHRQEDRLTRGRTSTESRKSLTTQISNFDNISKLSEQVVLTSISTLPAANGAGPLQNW
Experiment Summary: IPOne (IP-1) orexin receptor agonist assay in CHO cells expressing human OX2R
Recorded Conditions: IPOne assay, CHO cells expressing human OX2R, 2 hours incubation; read-out: hoX2R_IP IC50
# maps each entry to its pIC50
Scale for pIC50: -log10 of concentration given in mol/L; no unit attached.

Compound	pIC50
COC(=O)N1[C@H](C)C[C@H](NS(C)(=O)=O)[C@@H]1CO[C@@H]1CC[C@]2(c3ncc(Cl)cn3)C[C@@H]2C1 (single isomer, unassigned)	7.06
CC(C)OC(=O)N1[C@H](C)C[C@H](NS(C)(=O)=O)[C@@H]1CO[C@@H]1CC[C@]2(c3ncc(F)cn3)C[C@@H]2C1 (single isomer, unassigned)	8.10
CCC(F)(F)COC(=O)N1[C@H](C)C[C@H](NS(C)(=O)=O)[C@@H]1CO[C@H]1CC[C@@]2(c3ncc(F)cn3)C[C@H]2C1	8.85
COC(=O)N1[C@H](C)C[C@H](NS(C)(=O)=O)[C@@H]1COC1CCC2(c3ncc(F)c(C(F)F)n3)CC2C1 (stereo partly drawn)	6.66
COC(=O)N1[C@H](C)C[C@H](NS(C)(=O)=O)[C@@H]1COC1CCC2(c3ncc(F)c(OC)n3)CC2C1 (stereo partly drawn)	7.29

API: the following record is the query input.
Request: Check human OX2R (Homo sapiens, UniProt O43614) data and give pIC50 for CC(C)OC(=O)N1CCC[C@H](NS(=O)(=O)C(F)(F)F)[C@@H]1COC1CC[C@@]2(c3ncc(F)cn3)CC2C1 (stereo partly drawn) .
Response: 8.39

---

Assayed Target: human OX2R (Homo sapiens, UniProt O43614)
Experiment Summary: IPOne (IP-1) orexin receptor agonist assay in CHO cells expressing human OX2R
Recorded Conditions: IPOne assay, CHO cells expressing human OX2R, 2 hours incubation; read-out: hoX2R_IP IC50
# maps each entry to its pIC50
Scale for pIC50: -log10 of concentration given in mol/L; no unit attached.

Past entries and their recorded results:
Compound	pIC50
CC(OC(=O)N1[C@H](C)C[C@H](NS(C)(=O)=O)[C@@H]1CO[C@H]1CC[C@@]2(c3ncc(F)cn3)C[C@H]2C1)C(F)F (stereo partly shown)	9.11
COC(=O)N1[C@H](C)C[C@H](NS(C)(=O)=O)[C@@H]1COC1CCC2(c3ncc(F)c(C)n3)CC2C1 (stereo partly shown)	6.13
CCS(=O)(=O)N[C@H]1[C@H]2CCC[C@H]2N(C(=O)OC)[C@H]1COC1CCC2(c3ncc(F)cn3)CC2C1 (stereo partly shown)	9.05
COC(=O)N1[C@H](C)C[C@H](NS(=O)(=O)N(C)C)[C@@H]1COC1CCC2(c3ncccn3)CC2C1 (stereo partly shown)	9.03
COC(=O)N1[C@H](C)C[C@H](NS(=O)(=O)CF)[C@@H]1COC1CCC2(c3ncc(Cl)cn3)CC2C1 (stereo partly shown)	8.77
CC(C)OC(=O)N1[C@H](C)C[C@H](NS(=O)(=O)CF)[C@@H]1COC1CCC2(c3ncc(F)cn3)CC2C1 (stereo partly shown)	9.00

API: the following record is the query input.
Request: For the compound `COC(=O)N1[C@H](C)C[C@H](NS(=O)(=O)C(C)C)[C@@H]1CO[C@@H]1CC[C@]2(c3ncc(F)cn3)C[C@@H]2C1` , give its reported pIC50.
Response: 7.87
